Tested on: G3BP1 NFT2
Format: binding, human
Settings: library DMS-BM; bait G3BP1 NFT2; prey CAPRIN1; AQMQGPYNFIQDSM(averaged): mean of the two overlapping peptides over the shared positions
measurementLabel: DMS position-specific score (PSSM value) per amino-acid substitution, averaged

Which DMS position-specific score (PSSM value) per amino-acid substitution, averaged reading was recorded for the substance AQMQGPYNFIQDSM(averaged) P6W (AQMQGWYNFIQDSM) ? 0.02305

Which DMS position-specific score (PSSM value) per amino-acid substitution, averaged reading was recorded for the substance AQMQGPYNFIQDSM(averaged) S13N (AQMQGPYNFIQDNM) ? 0.02537

Which DMS position-specific score (PSSM value) per amino-acid substitution, averaged reading was recorded for the substance AQMQGPYNFIQDSM(averaged) D12E (AQMQGPYNFIQESM) ? 0.04092

Which DMS position-specific score (PSSM value) per amino-acid substitution, averaged reading was recorded for the substance AQMQGPYNFIQDSM(averaged) N8P (AQMQGPYPFIQDSM) ? 0.002565

Which DMS position-specific score (PSSM value) per amino-acid substitution, averaged reading was recorded for the substance AQMQGPYNFIQDSM(averaged) Q2D (ADMQGPYNFIQDSM) ? 0.02749

Which DMS position-specific score (PSSM value) per amino-acid substitution, averaged reading was recorded for the substance AQMQGPYNFIQDSM(averaged) M3D (AQDQGPYNFIQDSM) ? 0.0976

Which DMS position-specific score (PSSM value) per amino-acid substitution, averaged reading was recorded for the substance AQMQGPYNFIQDSM(averaged) N8R (AQMQGPYRFIQDSM) ? 0.00733

Which DMS position-specific score (PSSM value) per amino-acid substitution, averaged reading was recorded for the substance AQMQGPYNFIQDSM(averaged) Q4A (AQMAGPYNFIQDSM) ? 0.0506

Which DMS position-specific score (PSSM value) per amino-acid substitution, averaged reading was recorded for the substance AQMQGPYNFIQDSM(averaged) A1E (EQMQGPYNFIQDSM) ? 0.1606

Which DMS position-specific score (PSSM value) per amino-acid substitution, averaged reading was recorded for the substance AQMQGPYNFIQDSM(averaged) M3L (AQLQGPYNFIQDSM) ? 0.03704

###

Test system: G3BP1 NFT2
Format: binding, human
Conditions: library DMS-BM; bait G3BP1 NFT2; prey CAPRIN1; AQMQGPYNFIQDSM(averaged): mean of the two overlapping peptides over the shared positions
measurementLabel: DMS position-specific score (PSSM value) per amino-acid substitution, averaged
Give the value as a plain number.

Requested read-out DMS position-specific score (PSSM value) per amino-acid substitution, averaged, target or system G3BP1 NFT2, entry AQMQGPYNFIQDSM(averaged) P6E (AQMQGEYNFIQDSM) 0.004474

Requested read-out DMS position-specific score (PSSM value) per amino-acid substitution, averaged, target or system G3BP1 NFT2, entry AQMQGPYNFIQDSM(averaged) Q2M (AMMQGPYNFIQDSM) 0.123

Requested read-out DMS position-specific score (PSSM value) per amino-acid substitution, averaged, target or system G3BP1 NFT2, entry AQMQGPYNFIQDSM(averaged) D12L (AQMQGPYNFIQLSM) 0.008174

Requested read-out DMS position-specific score (PSSM value) per amino-acid substitution, averaged, target or system G3BP1 NFT2, entry AQMQGPYNFIQDSM(averaged) A1N (NQMQGPYNFIQDSM) 0.01838

Requested read-out DMS position-specific score (PSSM value) per amino-acid substitution, averaged, target or system G3BP1 NFT2, entry AQMQGPYNFIQDSM(averaged) A1W (WQMQGPYNFIQDSM) 0.05589

Requested read-out DMS position-specific score (PSSM value) per amino-acid substitution, averaged, target or system G3BP1 NFT2, entry AQMQGPYNFIQDSM(averaged) Q4P (AQMPGPYNFIQDSM) 0.003604

Requested read-out DMS position-specific score (PSSM value) per amino-acid substitution, averaged, target or system G3BP1 NFT2, entry AQMQGPYNFIQDSM(averaged) M14M 0.2883

Requested read-out DMS position-specific score (PSSM value) per amino-acid substitution, averaged, target or system G3BP1 NFT2, entry AQMQGPYNFIQDSM(averaged) G5L (AQMQLPYNFIQDSM) 0.1936

Requested read-out DMS position-specific score (PSSM value) per amino-acid substitution, averaged, target or system G3BP1 NFT2, entry AQMQGPYNFIQDSM(averaged) M14F (AQMQGPYNFIQDSF) 0.1772

Requested read-out DMS position-specific score (PSSM value) per amino-acid substitution, averaged, target or system G3BP1 NFT2, entry AQMQGPYNFIQDSM(averaged) G5F (AQMQFPYNFIQDSM) 0.2345

Requested read-out DMS position-specific score (PSSM value) per amino-acid substitution, averaged, target or system G3BP1 NFT2, entry AQMQGPYNFIQDSM(averaged) Q11N (AQMQGPYNFINDSM) 0.05691

Requested read-out DMS position-specific score (PSSM value) per amino-acid substitution, averaged, target or system G3BP1 NFT2, entry AQMQGPYNFIQDSM(averaged) Y7G (AQMQGPGNFIQDSM) 0.05778

Requested read-out DMS position-specific score (PSSM value) per amino-acid substitution, averaged, target or system G3BP1 NFT2, entry AQMQGPYNFIQDSM(averaged) N8E (AQMQGPYEFIQDSM) 0.01047

Requested read-out DMS position-specific score (PSSM value) per amino-acid substitution, averaged, target or system G3BP1 NFT2, entry AQMQGPYNFIQDSM(averaged) S13I (AQMQGPYNFIQDIM) 0.01393

Requested read-out DMS position-specific score (PSSM value) per amino-acid substitution, averaged, target or system G3BP1 NFT2, entry AQMQGPYNFIQDSM(averaged) M3V (AQVQGPYNFIQDSM) 0.3519

Requested read-out DMS position-specific score (PSSM value) per amino-acid substitution, averaged, target or system G3BP1 NFT2, entry AQMQGPYNFIQDSM(averaged) Y7D (AQMQGPDNFIQDSM) 0

Requested read-out DMS position-specific score (PSSM value) per amino-acid substitution, averaged, target or system G3BP1 NFT2, entry AQMQGPYNFIQDSM(averaged) Q4T (AQMTGPYNFIQDSM) 0.0001371

Requested read-out DMS position-specific score (PSSM value) per amino-acid substitution, averaged, target or system G3BP1 NFT2, entry AQMQGPYNFIQDSM(averaged) P6F (AQMQGFYNFIQDSM) 0.002152

Requested read-out DMS position-specific score (PSSM value) per amino-acid substitution, averaged, target or system G3BP1 NFT2, entry AQMQGPYNFIQDSM(averaged) A1F (FQMQGPYNFIQDSM) 0.03963

Requested read-out DMS position-specific score (PSSM value) per amino-acid substitution, averaged, target or system G3BP1 NFT2, entry AQMQGPYNFIQDSM(averaged) Y7R (AQMQGPRNFIQDSM) 0

Requested read-out DMS position-specific score (PSSM value) per amino-acid substitution, averaged, target or system G3BP1 NFT2, entry AQMQGPYNFIQDSM(averaged) M14S (AQMQGPYNFIQDSS) 0.001956

Requested read-out DMS position-specific score (PSSM value) per amino-acid substitution, averaged, target or system G3BP1 NFT2, entry AQMQGPYNFIQDSM(averaged) M3Q (AQQQGPYNFIQDSM) 0.0638

Requested read-out DMS position-specific score (PSSM value) per amino-acid substitution, averaged, target or system G3BP1 NFT2, entry AQMQGPYNFIQDSM(averaged) P6Q (AQMQGQYNFIQDSM) 0.00431

Requested read-out DMS position-specific score (PSSM value) per amino-acid substitution, averaged, target or system G3BP1 NFT2, entry AQMQGPYNFIQDSM(averaged) G5V (AQMQVPYNFIQDSM) 0.008337

Requested read-out DMS position-specific score (PSSM value) per amino-acid substitution, averaged, target or system G3BP1 NFT2, entry AQMQGPYNFIQDSM(averaged) Q11K (AQMQGPYNFIKDSM) 0.0002863

Requested read-out DMS position-specific score (PSSM value) per amino-acid substitution, averaged, target or system G3BP1 NFT2, entry AQMQGPYNFIQDSM(averaged) G5N (AQMQNPYNFIQDSM) 0.002472

Requested read-out DMS position-specific score (PSSM value) per amino-acid substitution, averaged, target or system G3BP1 NFT2, entry AQMQGPYNFIQDSM(averaged) N8I (AQMQGPYIFIQDSM) 0.06952

Requested read-out DMS position-specific score (PSSM value) per amino-acid substitution, averaged, target or system G3BP1 NFT2, entry AQMQGPYNFIQDSM(averaged) P6R (AQMQGRYNFIQDSM) 0.01834

Requested read-out DMS position-specific score (PSSM value) per amino-acid substitution, averaged, target or system G3BP1 NFT2, entry AQMQGPYNFIQDSM(averaged) D12I (AQMQGPYNFIQISM) 0.0003022

Requested read-out DMS position-specific score (PSSM value) per amino-acid substitution, averaged, target or system G3BP1 NFT2, entry AQMQGPYNFIQDSM(averaged) D12G (AQMQGPYNFIQGSM) 0.006593

Requested read-out DMS position-specific score (PSSM value) per amino-acid substitution, averaged, target or system G3BP1 NFT2, entry AQMQGPYNFIQDSM(averaged) Q4D (AQMDGPYNFIQDSM) 0.3261

Requested read-out DMS position-specific score (PSSM value) per amino-acid substitution, averaged, target or system G3BP1 NFT2, entry AQMQGPYNFIQDSM(averaged) F9Q (AQMQGPYNQIQDSM) 0.01043

Requested read-out DMS position-specific score (PSSM value) per amino-acid substitution, averaged, target or system G3BP1 NFT2, entry AQMQGPYNFIQDSM(averaged) M3H (AQHQGPYNFIQDSM) 0.02176

Requested read-out DMS position-specific score (PSSM value) per amino-acid substitution, averaged, target or system G3BP1 NFT2, entry AQMQGPYNFIQDSM(averaged) Q11P (AQMQGPYNFIPDSM) 0

Requested read-out DMS position-specific score (PSSM value) per amino-acid substitution, averaged, target or system G3BP1 NFT2, entry AQMQGPYNFIQDSM(averaged) Q4L (AQMLGPYNFIQDSM) 0.003961

Requested read-out DMS position-specific score (PSSM value) per amino-acid substitution, averaged, target or system G3BP1 NFT2, entry AQMQGPYNFIQDSM(averaged) F9F 0.9484

Requested read-out DMS position-specific score (PSSM value) per amino-acid substitution, averaged, target or system G3BP1 NFT2, entry AQMQGPYNFIQDSM(averaged) I10P (AQMQGPYNFPQDSM) 0

Requested read-out DMS position-specific score (PSSM value) per amino-acid substitution, averaged, target or system G3BP1 NFT2, entry AQMQGPYNFIQDSM(averaged) Y7M (AQMQGPMNFIQDSM) 0.001832

Requested read-out DMS position-specific score (PSSM value) per amino-acid substitution, averaged, target or system G3BP1 NFT2, entry AQMQGPYNFIQDSM(averaged) Y7I (AQMQGPINFIQDSM) 0.113

Requested read-out DMS position-specific score (PSSM value) per amino-acid substitution, averaged, target or system G3BP1 NFT2, entry AQMQGPYNFIQDSM(averaged) I10S (AQMQGPYNFSQDSM) 0.0008082

Requested read-out DMS position-specific score (PSSM value) per amino-acid substitution, averaged, target or system G3BP1 NFT2, entry AQMQGPYNFIQDSM(averaged) A1A 0.1937

Requested read-out DMS position-specific score (PSSM value) per amino-acid substitution, averaged, target or system G3BP1 NFT2, entry AQMQGPYNFIQDSM(averaged) Y7P (AQMQGPPNFIQDSM) 0.002813
